assay: qHTS drug screen for cell cycle checkpoint inhibitors in PARPi-resistant BRCA-mutant ovarian cancer cell lines. (AID 1963452); details: PEO1/OlaR viability, CellTiter-Glo luminescence, 96 h; measured here: PEO4 Z-AUC; stronger effect = lower value
Parameter Z-AUC: see the listing below.
Measured metric: Z-AUC

| Structure | Observed value |
| --- | --- |
| Cc1cc(CN2CCN(c3c(Br)cnc4nc(-c5ccc(N6CCN(C)CC6)cc5)[nH]c34)CC2)no1 | -0.2 |
| CC(C)c1noc(N2CCC(COc3ccc(-c4ccc(S(C)(=O)=O)cc4)nc3)CC2)n1 | 1.01 |
| CCS(=O)(=O)c1cccc(-c2cc(C(=O)NC3CCN(C)CC3)c(C)c3[nH]c4ncc(C)cc4c23)c1 | -0.883 |
| Cc1c(C)n(Cc2ccc(-c3ccccc3C(=O)O)cc2)c2ccc(C(=O)N[C@@H](C)c3ccc([N+](=O)[O-])cc3)cc12 | 0.226 |
| C=CC(=O)Nc1cc2c(Nc3ccc(F)c(Cl)c3)ncnc2cc1C#CC(C)(C)N1CCN(C)CC1 | -0.45 |

* * *

Test: Quantitative High-Throughput drug screen in 47 multiple myeloma cell lines against the NCATS MIPE library collection: NCIH929_DSMZ cell viability assay (AID 1918978); also: nearly all actives have a fitted effect of over 35% in size
Conditions: NCI-H929 myeloma viability, CellTiter-Glo ATP, 48 h; series mostly up to 45.8 µM
Source text: PI: Beverly A. Mock Ph.D. Laboratory of Cancer Biology and Genetics, Center for Cancer Research, National Cancer Institute, National Institute of Health, Bethesda, Maryland […] 5; Detector; 425V; Luminescence; Viewlux PerkinElmer. […] 1. […] Briefly, the corresponding myeloma cell lines were screened in 1,536-well plates with 500 cells, 5-uL per well for inhibition of cell viability (assessed by measuring ATP levels with CellTiterGlo). […]
Records with an inconclusive call do not appear. Active and inactive are the calls of the source. The call rests on the fitted dose curve; in most records, active means well fitted cell-killing curve with a large enough effect; inconclusive means small, poorly fitted or top-dose-only effect; inactive means no such curve, though single readings can be large or run the other way.
Outcomes: True (active), False (inactive)

| Compound | Class name |
| --- | --- |
| C=CC(=O)Nc1cc2c(Nc3ccc(F)c(Cl)c3)ncnc2cc1C#CC(C)(C)N1CCN(C)CC1 | True |
| O=C(Nc1cc(C(F)(F)F)cc(C(F)(F)F)c1)c1cc(Cl)ccc1O | True |
| Nc1ncnc2c1c(-c1cnc3[nH]ccc3c1)nn2C1CCCC1 | True |
| O=C(Nc1ncc(-c2cc(C(F)F)nn2-c2c(Cl)cccc2Cl)s1)C1CC1 | True |
| Cc1[nH]nc2ccc(-c3cncc(OC[C@@H](N)Cc4ccccc4)c3)cc12 | True |
| Cc1cn(-c2cc(NC(=O)c3ccc(C)c(Nc4nccc(-c5cccnc5)n4)c3)cc(C(F)(F)F)c2)cn1 | False |
| CC[C@@H]1C(=O)N(C)c2cnc(Nc3ccc(C(=O)NC4CCC(N5CCN(CC6CC6)CC5)CC4)cc3OC)nc2N1C(C)C (stereo partly drawn) | True |
| CCNC(=O)Nc1ccc2ncc(Nc3ccc(C)cc3)nc2n1 | True |
| CNC(=O)c1cc(Oc2ccc(NC(=O)Nc3cc(C(C)(C)C)nn3-c3ccc4ncccc4c3)c(F)c2)ccn1 | True |
| Clc1cccc(-n2nnnc2NCc2ccccc2Oc2ccccn2)c1Cl | False |
| CN1CCC(CNc2ccc3ncc(-c4cccc(OC(F)(F)F)c4)n3n2)CC1 | True |
| COc1cc2c(Oc3ccc4[nH]c(C)cc4c3F)ncnc2cc1OCCCN1CCCC1 | True |
| Cc1ccc(C(=O)Nc2cccc(C(F)(F)F)c2)cc1-c1ccc2nc(NCCN3CCOCC3)ncc2c1 | True |

* * *

test: NS1 protein of Zika virus - qHTS assay to identify small molecule inhibitors in human HEK 293 cells (AID 1347053); conditions: HEK293 ZIKV MR766 infection, NS1 TR-FRET, 24 h; series mostly up to 46.1 µM; also: nearly all actives have a fitted effect of over 55% in size
Results filed as inconclusive are left out. Calls of active or inactive are those of the source. Calls follow the shape of the dose curve; as a rule, active = well fitted inhibition curve with a large enough effect; inconclusive = small, poorly fitted or top-dose-only effect; inactive = no such curve, though single readings can be large or run the other way.
Outcomes: 1 (yes) for active, 0 (no) for inactive

| Compound | Class name |
| --- | --- |
| COc1cccc(Nc2c(C(N)=O)cnc3c(C)cc(S(=O)(=O)c4cccc(C(=O)N(C)C)c4)cc23)c1 | 0 (no) |
| Nc1ncnc2c1c(-c1cccc(OCc3ccccc3)c1)cn2C1CC(CN2CCCC2)C1 (centres undefined) | 0 (no) |
| Cn1c(CNc2ccc(C(=N)N)cc2)nc2cc(C(=O)N(CCC(=O)O)c3ccccn3)ccc21 | 0 (no) |
| CC(C)c1nn(-c2c(Cl)cccc2Cl)c2nc(Cc3ccc(OCCO)cc3)[nH]c(=O)c12 | 1 (yes) |

* * *

test: Quantitative High-Throughput drug screen in 47 multiple myeloma cell lines against the NCATS MIPE library collection: INA6_PLB cell viability assay (AID 1918965; also: nearly all actives have a fitted effect of over 55% in size; also: potency is read from the fitted curve at half-maximal effect); settings: INA6 myeloma viability, CellTiter-Glo ATP luminescence, 48 h; series mostly up to 45.8 µM
Results filed as inconclusive are left out. Calls of active or inactive are those of the source. Calls come from the whole dose curve; as a rule, active = well fitted cell-killing curve with a large enough effect; inconclusive = small, poorly fitted or top-dose-only effect, or effect the other way; inactive = no such curve, though single readings can be large or run the other way.
Measured metric: Potency

| Molecule | Measured metric | Observed value |
| --- | --- | --- |
| CC1COC2(CCN(c3nc(=O)c4cc(C(F)(F)F)cc([N+](=O)[O-])c4s3)CC2)O1 (stereo not drawn) | Potency | inactive |
| CC(C)(C)c1cc(C(C)(C)C)c(NC(=O)c2c[nH]c3ccccc3c2=O)cc1O | Potency | inactive |
| Cc1ccc(-c2ncn(-c3ccc(Nc4nccc(-c5cccc(N6CCOCC6)c5)n4)cc3)n2)cn1 | Potency | 66.2 nM (active) |
| CC1(C)CC(=O)c2c(C(F)(F)F)nn(-c3ccc(C(N)=O)c(NC4CCC(OC(=O)CN)CC4)c3)c2C1 (stereo not drawn) | Potency | 118 nM (active) |
| CC(C)CC(=O)Nc1n[nH]c2c1CN(C(=O)C1CCN(C)CC1)C2(C)C | Potency | 296 nM (active) |
| COc1cc(=C2C=c3ccccc3=N2)[nH]c1=Cc1[nH]c(C)cc1C | Potency | 1180 nM (active) |
| C=C1C(=CC=C2CCC[C@]3(C)[C@@H]([C@H](C)C=C[C@H](C)C(C)C)CC[C@@H]23)C[C@@H](O)C[C@@H]1O | Potency | 1480 nM (active) |
| COc1ccc(F)c(F)c1C(=O)c1cnc(NC2CCN(S(C)(=O)=O)CC2)nc1N | Potency | 1320 nM (active) |
| CC(C)(C)c1cnc(CSc2cnc(NC(=O)C3CCNCC3)s2)o1 | Potency | 235 nM (active) |
| CC(=O)OCC(=O)[C@@]1(O)[C@H](C)C[C@H]2[C@@H]3C=C(C)C4=Cc5c(cnn5-c5ccccc5)C[C@]4(C)[C@@H]3[C@@H](O)C[C@@]21C | Potency | 5260 nM (active) |
| c1cc(-c2cnn3cc(-c4ccc(OCCN5CCCCC5)cc4)cnc23)ccn1 | Potency | 1870 nM (active) |
| CC(NCc1ccc2c(c1)nc(NC(=O)c1ccc(-c3cn[nH]c3)s1)n2CC(C)(C)O)C(C)(C)C (stereo not drawn) | Potency | 83.3 nM (active) |
| O=C(CCCCCCNC(=O)c1cnc(N(c2ccccc2)c2ccccc2)nc1)NO | Potency | 2640 nM (active) |
| COc1cc2c(Oc3ccc4[nH]c(C)cc4c3F)ncnc2cc1OCCCN1CCCC1 | Potency | 9350 nM (active) |
| CC(=O)Nc1sc2c(c1-c1nc3ccccc3s1)CNC2 | Potency | 3720 nM (active) |
| CC(C)[C@H](C(=O)Nc1ccc(C(=O)NO)cc1)c1ccccc1 | Potency | 235 nM (active) |
| CN(C)CC(C)(C)CNc1nn2c(-c3ccccc3)nnc2cc1C1CCC1 | Potency | 2960 nM (active) |
| Cc1c(CN2CCN(S(C)(=O)=O)CC2)sc2c(N3CCOCC3)nc(-c3cnc(N)nc3)nc12 | Potency | 264 nM (active) |

* * *

test: Quantitative High-Throughput drug screen in 47 multiple myeloma cell lines against the NCATS MIPE library collection: Karpas620_DSMZ cell viability assay (AID 1918959); settings: Karpas620 myeloma viability, CellTiter-Glo ATP luminescence, 48 h; series mostly up to 45.8 µM; also: nearly all actives have a fitted effect of over 30% in size
Results filed as inconclusive are left out. Active and inactive are the calls of the source. Calls come from the whole dose curve; as a rule, active = well fitted cell-killing curve with a large enough effect; inconclusive = small, poorly fitted or top-dose-only effect, or effect the other way; inactive = no such curve, though single readings can be large or run the other way.
Outcomes: y for active, n for inactive

| Compound | Class name |
| --- | --- |
| COc1cc2c(Nc3ccc(NC(=O)c4ccccc4)cc3)ncnc2cc1OCCCN1CCOCC1 | n |
| CCCCCN(CCC12CC3CC(CC(C3)C1)C2)C(=O)NCCCc1ccncc1 | y |
| CC1(O)CC(c2nc(-c3ccc4ccc(-c5ccccc5)nc4c3)c3c(N)nccn23)C1 (stereo unspecified) | y |
| CC(=O)OCCN1C(=O)c2c(C)nc3ccc(S(=O)(=O)N4CCOCC4)cc3c2C1=O | n |
| COc1cc(=C2C=c3ccccc3=N2)[nH]c1=Cc1[nH]c(C)cc1C | y |
| CC(C)(O)CCc1ccc(OCc2cc(-c3cccc(OC(F)F)c3)c3ncccc3c2)cc1 | n |
| Nc1ccn([C@@H]2O[C@H](CO)[C@H](O)C2(F)F)c(=O)n1 | y |
| Cc1cc(Nc2cc(N3CCN(C)CC3)nc(C=Cc3ccccc3)n2)n[nH]1 | y |
| CN1CCC(CNc2ccc3ncc(-c4cccc(OC(F)(F)F)c4)n3n2)CC1 | y |
| CCN(CC)CCCCNc1ncc2cc(-c3cc(OC)cc(OC)c3)c(NC(=O)NC(C)(C)C)nc2n1 | y |
| Clc1cccc(-c2nnnn2Cc2cccnc2)c1Cl | n |
| C[C@]1(CO)CN(c2cc(C(=O)Nc3ccc4c(c3)-c3c(c(C(N)=O)nn3-c3ccc(F)cc3)CC4)c(Cl)cn2)C[C@@]1(C)CO | y |
| CC(C)(C)c1cc(C(C)(C)C)c(NC(=O)c2c[nH]c3ccccc3c2=O)cc1O | n |
| CC(C)c1cc(-c2n[nH]c(=O)n2-c2ccc3c(ccn3C)c2)c(O)cc1O | y |
| COCCOc1ccc2c(c1)ncn2-c1ccc2cccc(N3CCC(N)CC3)c2n1 | y |
| O=C(c1ccc(Nc2nccc(-c3cc4ccccc4s3)n2)cc1)N1CCC(N2CCCC2)CC1 | y |
| COC(=O)Nc1ccc(-c2nc(N3CCOCC3)c3cnn(C4CCN(Cc5cccnc5)CC4)c3n2)cc1 | n |
| Cc1cnc(-c2cnc(NCCNc3ccc(C#N)cn3)nc2-c2ccc(Cl)cc2Cl)[nH]1 | n |
| COc1cccc(-c2ccc(NC(=O)C3=C(C(=O)O)CCC3)c(F)c2)c1 | n |
| CCn1cc(-c2ccnc3[nH]c(-c4cccc(CN(C)C)c4)cc23)c(-c2ccc(NC(=O)N(C)C)cc2)n1 | y |
| Cc1nc2ccc(CN(C)c3ccc(C(=O)N[C@@H](CCC(=O)O)C(=O)O)s3)cc2c(=O)[nH]1 | n |
| CCCCOc1c(C(=O)c2c(F)cc(C)cc2F)cnc2n[nH]cc12 | y |
| Cc1coc2c1C(=O)C(=O)c1c-2ccc2c1CCCC2(C)C | n |
| Cc1[nH]nc2ccc(-c3cncc(OC[C@@H](N)Cc4ccccc4)c3)cc12 | y |
| Cc1c(CN2CCN(S(C)(=O)=O)CC2)sc2c(N3CCOCC3)nc(-c3cnc(N)nc3)nc12 | y |
| CN(C)c1nc(Cc2ccc(NC(=O)c3ccc4ccccc4c3)cc2)nc(Cl)c1CC(=O)O | n |
| O=C(O)Cn1nnc(-c2cc(N3CCC(Oc4cc(F)ccc4Br)CC3)no2)n1 | n |
| O=C(CCCCCCNC(=O)c1cnc(N(c2ccccc2)c2ccccc2)nc1)NO | y |
| Cc1cn(-c2cc(NC(=O)c3ccc(C)c(Nc4nccc(-c5cccnc5)n4)c3)cc(C(F)(F)F)c2)cn1 | n |
| CCc1c2c(nc3ccc(O)cc13)-c1cc3c(c(=O)n1C2)COC(=O)[C@]3(O)CC | y |
| Nc1ccn([C@@H]2CS[C@H](CO)O2)c(=O)n1 | n |
